Tested on: MS2 coat protein
Experiment: apparent KD of MS2 coat protein; designed switch direction (-1 OFF switch, 1 ON switch): -1; higher = weaker reporter binding
Conditions: input ligand: none
// reported apparent KD of MS2 coat protein for each item listed
# output: bare number, implied unit nM

What value of apparent KD of MS2 coat protein has been recorded for this entry: CGUGAGUCAGGAUAUGCCUGUACUAACUUGAGGAUCACCCAAGUGUCCUCCCGGUGCAAUGCAGAAGGGACGACGA [Oninlein] (Eterna round: R97, puzzle: Exclusion 5)
74.2

What value of apparent KD of MS2 coat protein has been recorded for this entry: GGAACGCGAGGAUAUACAAGGCCGGAAACGGAAAUAGCCUCACAUGAGGAUCACCCAUGUAGAAGGCGCGGAGA [AK-MS2ROC-r4-exclusion2-26] (Eterna round: R97, puzzle: Exclusion 2)
22.1

What value of apparent KD of MS2 coat protein has been recorded for this entry: UAGUGAGCGUGAGGAAUAUACAUGAGGAUCACCCAUGUUUGCUACUAUCUUGCUCGUCUUAUAACAACAAUUAACUG [mod-hagla-honey#50] (Eterna round: R97, puzzle: Sensor, turn-off variant 1)
16.9

What value of apparent KD of MS2 coat protein has been recorded for this entry: ACAACUGUUCCCAAGCUUUACAUGAGGAUCACCCAUGUUCGUCAAGAUUUGUACCAUCUAACGUAUGGCUCAAGUAC [Eternabot (L1) Solution 48] (Eterna round: R97, puzzle: Sensor, turn-off variant 1)
24.6
